Sourced from patent US20230227537A1

TARGET DESC: SARS-CoV-2 RBD protein Avi-tag biotinylated (AcroBiosystems SPD-C82E9) (SARS-CoV-2, UniProt P0DTC2 330-518)
ASSAY DETAILS: competition AlphaLISA; competitor human ACE2-mFc
READOUT LABEL: IC50 (nM)

SARS VHH-72 (VHH) VHH: QVQLQESGGGLVQAGGSLRLSCAASGRTFSEYAMGWFRQAPGKEREFVATISWSGGSTYYTDSVKGRFTISRDNAKNTVYLQMNSLKPDDTAVYYCAAAGLGTVVSEWDYDYDYWGQGTQVTVSS :: 26.7
VHH3.149 (VHH) VHH: QVQLQESGGGLVQAGGSLKLSCAASGRTFSSYALGWFRQAPGTEREFVSAINWFGAPTYYADSVKGRFTISRDNAKNTVYLQMDNLKPEDTAVYYCAADSKGWDPQDMDYWGKGTQVTVSS :: 0.902
VHH3.55 (VHH) VHH: QVQLQESGGGLVQAGGSLRLSCEVSGRTNDNYGVGWFRQVPGAERELVAAIRWSSISRYYKDSVKGRFTISRDNAKNTVYLQMDMLKPEDTAAYYCAADPAGWSEFGMEYWGKGTQVTVSS :: 0.817
VHH3BE4 (VHH) VHH: QVQLQESGGGLVQAGGSLRLSCVASGRAFGNGAVGWFRQAPGREREFVATVSWNGGGTYYAESVRGRFTISRDNAKSTVYLQMNSLKPEDTAVYYCASAGEGTVVSEWDYDYDYWGQGTQVTVSS :: 0.634
